Collected EC50 values appear next to each entry.
- ASSAYED_SYSTEM: GST-LXRβ ligand-binding domain (Homo sapiens, UniProt P55055)
- Construct: amino acids 156-461; NP009052; made in house; host or cells: E. coli
- Sequence (P55055 156-460 limits assumed): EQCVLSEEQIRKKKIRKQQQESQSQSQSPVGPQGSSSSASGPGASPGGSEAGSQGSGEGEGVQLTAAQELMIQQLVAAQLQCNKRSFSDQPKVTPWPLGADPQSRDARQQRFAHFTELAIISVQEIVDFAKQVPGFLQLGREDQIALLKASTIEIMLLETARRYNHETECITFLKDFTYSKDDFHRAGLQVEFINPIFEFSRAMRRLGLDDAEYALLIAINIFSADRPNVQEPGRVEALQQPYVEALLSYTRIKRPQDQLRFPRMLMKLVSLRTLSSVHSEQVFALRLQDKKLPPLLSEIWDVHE
- TEST_DESCRIPTION: TR-FRETβ activity assay (NCoA3 coactivator peptide recruitment)
- Type: biochemical
- ASSAY_CONDITIONS: 1 μM 24(S)-25-epoxycholesterol prestimulation

// compound `Cc1ccc(S(=O)(=O)n2c(-c3ccc(/C=C/C(=O)O)s3)c(-c3ccsc3C#N)c3ccccc32)cc1` , assay GST-LXRβ ligand-binding domain (Homo sapiens, UniProt P55055), EC50 value: 1000 to 10000 nM

// compound `O=C(O)c1ccc(-c2cccc(-c3c(-c4cccc5c4OCO5)c4cc(F)ccc4n3S(=O)(=O)c3ccc(C(F)F)cc3)c2)c(Cl)c1` , assay GST-LXRβ ligand-binding domain (Homo sapiens, UniProt P55055), EC50 value: < 100 nM

// compound `N#Cc1sccc1-c1c(-c2cccs2)n(S(=O)(=O)c2ccc(Cl)cc2)c2cc(CCC(=O)O)c(O)cc12` , assay GST-LXRβ ligand-binding domain (Homo sapiens, UniProt P55055), EC50 value: > 10000 nM

// compound `O=C(O)c1ccc(-c2cccc(-c3c(-c4ccccc4C4COC4)c4cc(F)ccc4n3S(=O)(=O)c3ccc(C(F)F)cc3)c2)c(Cl)c1` , assay GST-LXRβ ligand-binding domain (Homo sapiens, UniProt P55055), EC50 value: < 100 nM
